Tested on: T-47D cells
methodNotes: Caspase cascade activation (N-(Ac-DEVD)-N′-ethoxycarbonyl-R110 fluorogenic substrate) in T-47D cells
Format: cell-based, Human
particulars: T-47D, 48 hr; benzohydrazide analogs table
Reported Ratio T-47D (48 hr) is given for each of the following compounds.

Here is how some compounds turned out for Ratio T-47D (48 hr).
smi	Ratio T-47D (48 hr)
CSc1nc(N(C)NC(=O)c2ccc(F)cc2)c2ccccc2n1	13.8
CSc1nc(N(C)NC(=O)c2ccccc2)c2ccccc2n1	14.7
CN(NC(=O)c1ccccc1F)c1nc(C(F)(F)F)nc2ccccc12	13.7
CSc1nc(N(C)NC(=O)c2cccs2)c2ccccc2n1	10.1
CSc1nc(N(C)NC(=O)c2ccc(Cl)cc2)c2ccccc2n1	14.4

Looking up COc1ccc(C(=O)NN(C)c2nc(C(F)(F)F)nc3ccccc23)cc1 , I found its Ratio T-47D (48 hr) recorded as 13.1

// CSc1nc(N(C)NC(=O)c2cccc(C)c2)c2ccccc2n1 : Ratio T-47D (48 hr) value = 12.7
